- SYSTEM_UNDER_TEST: A/H3N2 neuraminidase
- Format: biochemical, influenza A/H3N2 virus
- CONDITION_SET: read-out: median IC50 value (unheaded second column under IC50 (nM))
EXPERIMENTAL_ENDPOINT: IC50
Answer format: value, then unit.

Problem: I am curious: what IC50 value has been reported for CCC(CC)[C@H](NC(C)=O)[C@@H]1[C@H](O)[C@@H](C(=O)O)C[C@H]1N=C(N)N [Peramivir, peramivir hydrate] ?
Result: 0.7 nM

###

Documented IC50 across a set of compounds
- SYSTEM_UNDER_TEST: A/H3N2 neuraminidase
- Assay type: biochemical, influenza A/H3N2 virus
- CONDITION_SET: read-out: median IC50 values
# number only, unit nM dropped from output

| COMPOUND | EXPERIMENTAL_ENDPOINT | UNIT_TEXT | OBSERVED_VALUE |
| --- | --- | --- | --- |
| CCOC(=O)C1=C[C@@H](OC(CC)CC)[C@H](NC(C)=O)[C@@H](N)C1 [Oseltamivir, oseltamivir phosphate] | IC50 | nM | 1.1 |

Problem: I am curious: what IC50 value has been reported for CC(=O)N[C@H]1[C@H]([C@H](O)[C@H](O)CO)OC(C(=O)O)=C[C@@H]1N=C(N)N [Zanamivir, zanamivir hydrate] ?
Result: 2.4

###

Documented IC50 across a set of compounds
- SYSTEM_UNDER_TEST: A/H3N2 neuraminidase
- Assay type: biochemical, influenza A/H3N2 virus
- CONDITION_SET: read-out: median IC50 value
# number only, unit nM dropped from output

| COMPOUND | EXPERIMENTAL_ENDPOINT | UNIT_TEXT | OBSERVED_VALUE |
| --- | --- | --- | --- |
| CCC(CC)[C@H](NC(C)=O)[C@@H]1[C@H](O)[C@@H](C(=O)O)C[C@H]1N=C(N)N [Peramivir, peramivir hydrate] | IC50 | nM | 0.7 |

Problem: I am curious: what IC50 value has been reported for CC(=O)N[C@H]1[C@H]([C@H](O)[C@H](O)CO)OC(C(=O)O)=C[C@@H]1N=C(N)N [Zanamivir, zanamivir hydrate] ?
Result: 1.6

###

- SYSTEM_UNDER_TEST: A/H3N2 neuraminidase
- Format: biochemical, influenza A/H3N2 virus
- CONDITION_SET: read-out: IC50 (nM), second unheaded column: median IC50 value
EXPERIMENTAL_ENDPOINT: IC50 (nM)
# number only, unit nM dropped from output

Problem: I am curious: what IC50 value has been reported for CCC(CC)[C@H](NC(C)=O)[C@@H]1[C@H](O)[C@@H](C(=O)O)C[C@H]1N=C(N)N [Peramivir, peramivir hydrate] ?
Result: 0.7

###

- SYSTEM_UNDER_TEST: A/H3N2 neuraminidase
- Format: biochemical, influenza A/H3N2 virus
- CONDITION_SET: read-out: IC50 (nM), second column without sub-head (median IC50 value)
Documented IC50 across a set of compounds
# number only, unit nM dropped from output

Problem: I am curious: what IC50 value has been reported for CCC(CC)[C@H](NC(C)=O)[C@@H]1[C@H](O)[C@@H](C(=O)O)C[C@H]1N=C(N)N [Peramivir, peramivir hydrate] ?
Result: 0.8

Problem: Please answer likewise for CC(=O)N[C@H]1[C@H]([C@H](O)[C@H](O)CO)OC(C(=O)O)=C[C@@H]1N=C(N)N [Zanamivir, zanamivir hydrate]
Result: 2.2
